// data source = paper PMC11510591

experimental system: human serum albumin (HSA) (Homo sapiens, UniProt P02768)
Construct: purchased Sigma-Aldrich
Sequence (P02768 25-609): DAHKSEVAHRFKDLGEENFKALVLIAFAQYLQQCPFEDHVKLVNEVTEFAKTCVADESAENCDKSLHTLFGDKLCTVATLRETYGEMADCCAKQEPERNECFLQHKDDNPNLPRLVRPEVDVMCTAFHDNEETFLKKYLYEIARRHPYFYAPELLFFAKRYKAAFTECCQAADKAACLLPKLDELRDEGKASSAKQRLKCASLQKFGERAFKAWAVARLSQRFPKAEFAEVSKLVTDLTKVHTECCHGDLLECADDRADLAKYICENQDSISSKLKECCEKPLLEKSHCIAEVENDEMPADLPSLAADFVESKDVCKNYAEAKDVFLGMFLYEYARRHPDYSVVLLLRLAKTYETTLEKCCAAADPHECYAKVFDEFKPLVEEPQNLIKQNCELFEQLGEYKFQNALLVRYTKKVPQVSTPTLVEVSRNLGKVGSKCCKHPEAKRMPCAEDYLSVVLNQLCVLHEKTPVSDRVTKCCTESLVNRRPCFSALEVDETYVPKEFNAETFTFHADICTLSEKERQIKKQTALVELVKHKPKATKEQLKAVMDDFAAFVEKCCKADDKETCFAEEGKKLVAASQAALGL
protocol description: Differential pulse voltammetry (DPV), interaction with HSA
Type: binding
assay setup: human, human serum albumin solution in PBS; compound 0.05 mmol/L, PBS pH 7.4, HSA 0.05–10 μmol/L; read-out: % Bound Drug (converted)
Parameter fraction unbound at 0.05 mmol/L: see the listing below.

[
  {
    "compound": "COc1ccc2cc(C(C)N(O)C(C)=O)ccc2c1 (centres unmarked) [Compound 12]",
    "experimental system": "human serum albumin (HSA) (Homo sapiens, UniProt P02768)",
    "fraction unbound at 0.05 mmol/L": 0.296
  },
  {
    "compound": "COc1ccc2c(c1)c(CNC(=O)NO)c(C)n2C(=O)c1ccc(Cl)cc1 [Compound 1]",
    "experimental system": "human serum albumin (HSA) (Homo sapiens, UniProt P02768)",
    "fraction unbound at 0.05 mmol/L": 0.267
  },
  {
    "compound": "O=C(NO)NCc1ccccc1Nc1c(Cl)cccc1Cl [Compound 3]",
    "experimental system": "human serum albumin (HSA) (Homo sapiens, UniProt P02768)",
    "fraction unbound at 0.05 mmol/L": 0.198
  },
  {
    "compound": "CC(=O)N(O)C(C)c1ccc(CC(C)C)cc1 (centres unmarked) [Compound 11]",
    "experimental system": "human serum albumin (HSA) (Homo sapiens, UniProt P02768)",
    "fraction unbound at 0.05 mmol/L": 0.292
  },
  {
    "compound": "CC(NC(=O)NO)c1ccc(-c2ccccc2)c(F)c1 (centres unmarked) [Compound 2]",
    "experimental system": "human serum albumin (HSA) (Homo sapiens, UniProt P02768)",
    "fraction unbound at 0.05 mmol/L": 0.198
  }
]

----------
protocol description: PAMPA test (hexadecane membrane), passive gastrointestinal absorption
Assay type: in vitro ADME
assay setup: donor pH 5.5, acceptor pH 7.4, 5 h, room temperature

[
  {
    "compound": "O=C(NO)NCc1ccccc1Nc1c(Cl)cccc1Cl",
    "–logPe": "4.11 ± 0.02"
  },
  {
    "compound": "CC(C(=O)O)c1ccc(-c2ccccc2)c(F)c1 (stereo not drawn)",
    "–logPe": "<3.40"
  },
  {
    "compound": "CC(C)Cc1ccc(C(C)C(=O)O)cc1 (stereo not drawn)",
    "–logPe": "<3.40"
  },
  {
    "compound": "COc1ccc2c(c1)c(CC(=O)O)c(C)n2C(=O)c1ccc(Cl)cc1 [Indomethacin, indomethacin, reference compound]",
    "–logPe": "3.41 ± 0.05"
  },
  {
    "compound": "O=C(O)Cc1ccccc1Nc1c(Cl)cccc1Cl",
    "–logPe": "<3.40"
  },
  {
    "compound": "CC(=O)N(O)C(C)c1ccc(CC(C)C)cc1 (stereo not drawn)",
    "–logPe": "3.84 ± 0.05"
  }
]

----------
protocol description: Stability in acidic medium (0.01 M HCl)
Type: physicochemical
assay setup: 0.01 M HCl pH 2, after 2 h
// label = rule met if Peak Area, t is not less than 7, otherwise rule not met

[
  {
    "compound": "CC(=O)N(O)C(C)c1ccc(CC(C)C)cc1 (centres unmarked)",
    "class name": "rule met"
  },
  {
    "compound": "CC(NC(=O)NO)c1ccc(-c2ccccc2)c(F)c1 (centres unmarked)",
    "class name": "rule not met"
  },
  {
    "compound": "O=C(NO)NCc1ccccc1Nc1c(Cl)cccc1Cl",
    "class name": "rule not met"
  },
  {
    "compound": "COc1ccc2c(c1)c(CNC(=O)NO)c(C)n2C(=O)c1ccc(Cl)cc1",
    "class name": "rule met"
  },
  {
    "compound": "COc1ccc2cc(C(C)N(O)C(C)=O)ccc2c1 (centres unmarked)",
    "class name": "rule met"
  }
]
